Values compiled from patent US20260248131A1.

PROCEDURE_SUMMARY: physchem
Assay type: physicochemical
MEASUREMENT_CONDITIONS: water, thermodynamic from solid, Water Solubility
MEASUREMENT_KIND: solubility (µg/mL)
// return numeric value only (unit: µg/mL, not printed)

// fetch solubility given entry `O=C1C=C(N(Cc2ccc(Cl)nc2)CC(F)F)CO1`
2000
